- System: OVCAR-3 ovarian
- ASSAY EXPLANATION: NCI-60 one-dose screen, 48 h (100 = growth as untreated, 0 = no growth, -100 = all killed)
- MEASUREMENT CONDITIONS: 10 µM unless noted
Compounds without any hit were thinned out: in the full panel of roughly 83,000, 20% have a hit. Activity calls are given as the source filed them. Rule for the calls: active = growth percent below 10; inactive = the rest.
ENDPOINT NAME: growth

1. CCCC(=O)NNc1[nH]c(-c2ccc(OC)cc2)cc1C(=O)OCC; 90% (inactive)
2. CN1NC(c2ccccc2)NN(C)C1=O; 112% (inactive)

Then this compound:
Input line: # input compound: COC(=O)c1ccc2[nH]c(O)c(C(=Nc3ccc(N(C)C(=O)CN4CCN(C)CC4)cc3)c3ccc4c(c3)OCO4)c2c1 ; wanted: its growth
Output line: 10.9% (inactive)

* * *

- Test system: SR leukemia
- ASSAY EXPLANATION: NCI-60 one-dose screen, 48 h
- MEASUREMENT CONDITIONS: 10 µM unless noted
The panel holds about 83,000 compounds, 20% with a hit somewhere; the sample as a whole holds those more often. Calls of active or inactive are those of the source. Rule for the calls: active = growth percent below 10; inactive = the rest.
Hello, when you answer, please use one of the following outcomes: active, inactive

Reference set, count: 5
1. Clc1ccc(I)c2ccccc12; inactive
2. Clc1ccc(N/N=C(/c2ccccc2)c2ccccn2)nc1; inactive
3. CCCCCCCCCC[N+](C)(C)N; inactive
4. CC(=O)OC1/C=C\CC/C=C\C1 (configuration not stated); inactive
5. CCN(CC)CCCNc1c2ccc(Cl)cc2nc2ccc(OC)cc12; active

Input line: Call for entry O=C(O)c1occ(Cl)c1Cl :
Output line: inactive

Input line: How about c1ccc2[nH]c(-c3ccc(OCCCCCOc4ccc(-c5nc6ccccc6[nH]5)cc4)cc3)nc2c1 ?
Output line: active

* * *

- System: OVCAR-8 ovarian
- ASSAY EXPLANATION: NCI-60 one-dose screen, 48 h
- MEASUREMENT CONDITIONS: 10 µM unless noted
About 83,000 compounds went through this panel and 20% of them were active in at least one assay; those are over-represented in the sample as a whole. The source made the active and inactive calls. How the source made its calls: active means growth percent below 10; inactive means the rest.
Thanks in advance; please answer with one of these: active, inactive

The following molecules have reported results that may help.
1. COc1ccc(-c2nc(SCC(C)C)nc(Nc3ccc(C)cc3)c2C#N)cc1; inactive
2. CC(O)CN(CCO)CCN(CCO)CC(C)O (centres undefined); inactive
3. Nc1cc(N)c2nc(NCCc3ccc(Cl)c(Cl)c3)cnc2c1; inactive
4. N#CCc1ncc(-c2ccc(C(F)(F)F)cc2)c(NC2CCCCCC2)n1; inactive
5. COc1ccc2oc(=O)cc(CN3C(=O)S/C(=C\c4ccc(Cl)cc4)C3=O)c2c1; inactive

Input line: Lab log entry: O=C(/C=C/c1ccc(Br)cc1)c1ccccc1 — outcome as called in the assay?
Output line: inactive

Input line: Next record, please: CC(=O)Nc1nc(C)c(C(=O)NN)s1
Output line: inactive

Input line: And what about the molecule O=C(/C(Br)=C/c1ccccc1)c1ccccc1 ?
Output line: active

Input line: Next molecule up: NNC(=S)N1N=C(c2cc3ccccc3o2)CC1c1c[nH]c2ccccc12 (centres undefined)
Output line: inactive

* * *

- Tested on: BT-549 breast
- ASSAY EXPLANATION: NCI-60 one-dose screen, 48 h
- MEASUREMENT CONDITIONS: 10 µM unless noted
The panel holds about 83,000 compounds, 20% with a hit somewhere; the sample as a whole holds those more often. Calls of active or inactive are those of the source. How the source made its calls: active means growth percent below 10; inactive means the rest.
A correct response names exactly one class from 1.0 (active), 0.0 (inactive)

Consider the worked cases shown below.
1) O=C(Cc1ccccc1[N+](=O)[O-])c1ccc2c(c1)OCO2; 0.0
2) COc1cc2cc3cc4cc(OC)c(OC)cc4c(C)[n+]3cc2cc1OC (tested in a mixture with another compound); 0.0
3) c1cc(C2CCCCC2)ccc1OCCCCCCN1CCNCC1; 0.0
4) COc1ccc(Cn2cc3c(c2)-c2oncc2CC3)cc1OC; 0.0

Input line: Record lookup: outcome of this test for Nc1ccc(S(=O)(=O)Nc2cc(F)cc(F)c2)cc1 ?
Output line: 0.0

Input line: Would you kindly repeat that for Cc1c(O)c(N=Nc2ccc(C(=O)O)c(O)c2)c2ccccc2c1O ?
Output line: 0.0

Input line: Now the same for Oc1ccccc1\C=N/N=C/C=C/c1ccccc1
Output line: 0.0
